Field: IC50. System: UniProtKB O95819. Provenance: assorted publications.

CS(=O)(=O)c1cccc(-c2cnc3[nH]cc(C(=O)c4cc(NS(=O)(=O)C5CCCC5)ccc4F)c3c2)c1: ≤ 10000 nM
Cc1[nH]c2ncccc2c1-c1ccccc1: ≤ 10000 nM
Cc1cc(C)c(NC(=O)c2ccc(-c3c(-c4ccc(F)cc4)ncn3C3CCCC3)o2)c(C)c1: 240 nM
CC(=O)c1cccc(NC(=O)c2ccc(-c3c(-c4ccc(F)cc4)ncn3C3CCCCC3)o2)c1: 625 nM
CCOc1ccc(NC(=O)c2ccc(-c3c(-c4ccc(F)cc4)ncn3C3CCCCC3)o2)cc1: 175 nM
Cc1cnc2[nH]cc(C(=O)c3c(F)ccc(NS(=O)(=O)CCC(F)(F)F)c3F)c2c1: ≤ 10000 nM
Cc1cnc2[nH]cc(C(=O)c3cccc(NS(=O)(=O)C4CCCC4)c3)c2c1: ≤ 10000 nM
O=C(Nc1ccccc1F)c1ccc(-c2c(-c3ccc(F)cc3)ncn2CC2CCNC2)o1 (centres unmarked): 3200 nM

Ask: // lookup IC50 for `O=C(c1c(F)ccc(NS(=O)(=O)c2c(F)cccc2F)c1F)c1c[nH]c2ncc(Cl)cc12`
Result: ≤ 10000 nM

Ask: // lookup IC50 for `O=C(c1ccccc1)c1c[nH]c2ncccc12`
Result: ≤ 10000 nM

Ask: // lookup IC50 for `COc1ccc(-c2c(C)[nH]c3ncccc23)cc1OC`
Result: ≤ 10000 nM

Ask: // lookup IC50 for `Cn1cc(-c2cnc3[nH]cc(C(=O)c4cc(NS(=O)(=O)C5CCCCC5)ccc4F)c3c2)cn1`
Result: ≤ 10000 nM

Ask: // lookup IC50 for `CCCS(=O)(=O)Nc1ccc(F)c(C(=O)c2c[nH]c3ncc(-c4ccc(S(=O)(=O)C(C)C)cc4)cc23)c1F`
Result: ≤ 10000 nM
